What pIC50 was measured for each of the following?
System: HCV replication, genotype 1b (Huh-7 HCV replicon cell, sub-line 5-15)
assay.protocol: Replicon ELISA cell based assay, genotype 1b
measurement.conditions: Hepatitis C virus, Huh-7 HCV replicon cells, genotype 1b (sub-line 5-15), 72 hours, mean, assayed at least twice
Method: Replicon ELISA Cell Based Assay 100 μL of medium containing 10% FCS were added to each well of clear, flat-bottomed 96 well microplates, excepting wells in the top row. […] Following incubation, the assay medium was aspirated from the plates. […] The reaction was stopped by the addition of 25 μL per well of 2 M sulphuric acid and the plates were read at 490 nm on a Fluostar Optima spectrophotometer. […]
pIC50: −log10 of the molar value.

# input Give the measured pIC50 of Cc1ccn2nc(-c3ccc(-c4cc(N(C(=O)[C@H]5CC[C@H](C)CC5)C(C)C)c(C(=O)O)s4)cc3)cc2n1 [Example 6] .
# output 7.30 to 8.00

# input Any idea what pIC50 was measured for CC(C)N(c1cc(-c2ccc(-c3cnc4occc4c3)cc2)sc1C(=O)O)C(=O)[C@H]1CC[C@H](C)CC1 [Example 9] ?
# output 7.00 to 7.30

# input // pIC50 lookup, key: CC(C)N(c1cc(-c2ccc(-c3ccc4[nH]ccc4c3)cc2)sc1C(=O)O)C(=O)[C@H]1CC[C@H](C)CC1 [Example 41]
# output 7.00 to 7.30

# input Which measured pIC50 value corresponds to CC(C)N(c1cc(-c2ccc(C#N)cc2)sc1C(=O)O)C(=O)[C@H]1CC[C@H](C)CC1 [Compound D, reference compound] ?
# output 5.30 to 6.00

# input Param item = CC(C)N(c1cc(-c2ccc(-c3cn4ccsc4n3)nc2)sc1C(=O)O)C(=O)[C@H]1CC[C@H](C)CC1 [Example 32] ; retrieve measured pIC50.
# output 7.00 to 7.30

# input Fill in: pIC50 of CCN(c1cc(-c2ccc(-c3cc4ncccn4n3)cc2)sc1C(=O)O)C(=O)[C@H]1CC[C@H](C)CC1 [Example 40] is ___
# output 8.00 to 8.30

# input Can you share its pIC50? I mean this compound: CC(C)N(c1cc(-c2ccc(-c3ccn4nccc4n3)cc2)sc1C(=O)O)C(=O)[C@H]1CC[C@H](C)CC1 [Example 17]
# output 6.30 to 7.00

# input Which pIC50 value belongs to CC(C)N(c1cc(-c2ccc(-c3ccc4cc[nH]c4c3)cc2)sc1C(=O)O)C(=O)[C@H]1CC[C@H](C)CC1 [Example 42] ?
# output 7.30 to 8.00

# input What value of measured pIC50 is listed for CC(C)N(c1cc(-c2ccc(-c3cn4ccsc4n3)cc2)sc1C(=O)O)C(=O)[C@H]1CC[C@H](C(F)(F)F)CC1 [Example 21] ?
# output 6.30 to 7.00

# input Looking for the measured pIC50 of CC(C)N(c1cc(-c2ccc(-c3cc4cc(N)ccc4o3)cc2)sc1C(=O)O)C(=O)[C@H]1CC[C@H](C)CC1 [Example 29] , can you help?
# output 6.30 to 7.00

# input Given CC(C)N(c1cc(-c2coc(-c3nc4ccccc4o3)c2)sc1C(=O)O)C(=O)[C@H]1CC[C@H](C)CC1 [Example 31] , state its recorded pIC50.
# output 6.30 to 7.00

# input Consider the compound shown here: CC(C)N(C(=O)c1ccc(Cl)cc1Cl)c1cc(-c2ccc(-c3nnn[nH]3)cc2)sc1C(=O)O [Compound F, reference compound] What is its recorded pIC50?
# output < 5.30

# input I have this compound here, C[C@H]1CC[C@H](C(=O)N(CC2CC2)c2cc(-c3ccc(-c4cc5ncccn5n4)cc3)sc2C(=O)O)CC1 [Example 35] , and I need its recorded pIC50.
# output 8.00 to 8.30

# input Consider the compound CC(C)N(c1cc(-c2ccc(-c3nc4cccnc4o3)cc2)sc1C(=O)O)C(=O)[C@H]1CC[C@H](C)CC1 [Example 11] and give its measured pIC50.
# output 6.30 to 7.00
